The reported measurements were obtained from ChEMBL document CHEMBL1131072.

# PROTOCOL TEXT: Partition coefficient (logD7.4)
# Type: physicochemical
# TEST PARAMETERS: octanol/water, pH 7.4
MEASUREMENT KIND: logD

Look over these answered cases.
Cc1c(O)c(=O)ccn1CC(C)C	0.65
CCc1c(O)c(=O)ccn1CCCO	-0.32
COC(Cn1ccc(=O)c(O)c1C)OC	-0.46
CCCNC(=O)CCn1ccc(=O)c(O)c1C	-0.4
COC(=O)CCn1ccc(=O)c(O)c1C	-0.77
Cc1c(O)c(=O)ccn1CCC(=O)NC(C)C	-0.47

I = CCCn1ccc(=O)c(O)c1CC
II = Cc1c(O)c(=O)ccn1CC(C)(C)O
input: # compare logD for I vs II ; return the one with the smaller value Please reply using the label of the selected record.
output: II
(II: -0.77, I: 0.7)
